# system name: PscD (PscD-SD, Cache sensor domain of chemoreceptor PscD) (Pseudomonas syringae, UniProt A0ABY1U976)
# Construct: gene CFBP3846_03581; sensor domain, Gln31-Trp188, N-terminal His6 tag
# measurement protocol: ITC; thermal shift
# Type: binding
# condition context: read-out: Kd
# Sequence (A0ABY1U976 entry or part of it): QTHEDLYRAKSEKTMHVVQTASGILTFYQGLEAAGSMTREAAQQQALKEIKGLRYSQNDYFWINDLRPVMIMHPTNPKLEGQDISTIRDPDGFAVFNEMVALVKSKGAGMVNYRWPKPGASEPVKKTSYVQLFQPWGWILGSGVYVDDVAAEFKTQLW
Reported Kd by item:
property name: Kd

>>> print(df.to_string())
                  molecule  assay_result
0        CC(=O)O [acetate]         31 µM
1  CC(=O)C(=O)O [pyruvate]        356 µM

* * *

# system name: PscD (PscD-SD, Cache sensor domain of chemoreceptor PscD) (Pseudomonas syringae, UniProt A0ABY1U976)
# Construct: gene CFBP3846_03581; sensor domain, Gln31-Trp188, N-terminal His6 tag
# condition context: Biolog plate compound, exact concentration unknown; binder
# Sequence (A0ABY1U976 31-188): as the sequence (A0ABY1U976 entry or part of it) above
Peptide text beside a SMILES is read from it.
Assign Met to entries whose Δ Tm meets or exceeds 0.1 °C; assign Not met to the rest.

>>> df
                                   molecule  label_class
0  O=c1[nH]cnc2c1ncn2[C@@H]1O[C@H](CO)[C@@H](O)[C@H]1O          Met
1                      O=C(O)CO [glycolate]          Met
2     O=C(O)CC(Br)C(=O)O (stereo not drawn)      Not met
3  CCC(O)C(=O)O (stereo not drawn) [α-Hydroxy Butyric Acid]          Met
4                   CC(=O)C(=O)O [pyruvate]          Met
5                    O=C(O)C[C@@H](O)C(=O)O          Met
6  NCC(=O)N[C@@H](CC(=O)O)C(=O)O [Glycyl-L-Aspartic Acid] (H-Gly-Asp-OH)      Not met
7   O=C[C@H](O)[C@@H](O)[C@@H](O)[C@H](O)CO          Met
8                        O=C(O)[C@@H]1CCCN1      Not met
9           COC(=O)C(C)=O [Methyl Pyruvate]          Met

* * *

# system name: PscD (PscD-SD, Cache sensor domain of chemoreceptor PscD) (Pseudomonas syringae)
# Construct: gene CFBP3846_03581; sensor domain, Gln31-Trp188, N-terminal His6 tag
# measurement protocol: ITC; thermal shift
# Type: binding
pKd: −log10 of the molar value.
property name: pKd

In [3]: df
Out[3]:
               compound  property_name  assay_result
0  O=C(O)CO [glycolate]            pKd          4.64

* * *

# system name: PscD (PscD-SD, Cache sensor domain of chemoreceptor PscD) (Pseudomonas syringae, UniProt A0ABY1U976)
# Construct: gene CFBP3846_03581; sensor domain, Gln31-Trp188, N-terminal His6 tag
# measurement protocol: ITC; X-ray crystal structure (propionate soak); thermal shift
# Format: binding
property name: Kd (µM)

>>> print(df.to_string())
                molecule  assay_result
0  CCC(=O)O [propionate]           101

* * *

Δ Tm values by entry
# system name: PscD (PscD-SD, Cache sensor domain of chemoreceptor PscD) (Pseudomonas syringae, UniProt A0ABY1U976)
# Construct: gene CFBP3846_03581; sensor domain, Gln31-Trp188, N-terminal His6 tag
# Design: fluorescence thermal shift (SYPRO Orange) screen of Biolog PM1/PM2 compounds, delta Tm
# condition context: Biolog plate compound, exact concentration unknown; binder
# Experimental: We used high-throughput fluorescence thermal shift (FTS) assays (as described previously[16]) to screen for potential ligands of PscD-SD. […] In our FTS assays, the Tm was measured by monitoring an increase in fluorescence of a dye with affinity for hydrophobic parts of the protein (i.e. SYPRO Orange), which are exposed as the protein unfolds. […] The first derivative values (−dF/dt) from the raw fluorescence data were used to determine the melting temperature (Tm). […]
property name: Δ Tm (°C)

                                   molecule  unit_abbrev  assay_result
0  OCc1ccccc1O[C@@H]1O[C@H](CO)[C@@H](O)[C@H](O)[C@H]1O [Salicin]           °C          0.08
1  CCC(C)N (stereo not drawn) [Sec-Butylamine]           °C          0.00
2         N[C@@H](CCO)C(=O)O [L-Homoserine]           °C          0.03
3       O=C(O)CCCO [γ-Hydroxy Butyric Acid]           °C          0.08
4            CC(C)[C@H](N)C(=O)O [L-Valine]           °C          0.03
5  O=C1CC[C@@H](C(=O)O)N1 [L-Pyroglutamic Acid]           °C          0.08

Ref: paper PMC5062169
